tgt: T1, L-selectin (LS-Rg) (Homo sapiens, UniProt P14151 P14151:39-332)
T1 chain: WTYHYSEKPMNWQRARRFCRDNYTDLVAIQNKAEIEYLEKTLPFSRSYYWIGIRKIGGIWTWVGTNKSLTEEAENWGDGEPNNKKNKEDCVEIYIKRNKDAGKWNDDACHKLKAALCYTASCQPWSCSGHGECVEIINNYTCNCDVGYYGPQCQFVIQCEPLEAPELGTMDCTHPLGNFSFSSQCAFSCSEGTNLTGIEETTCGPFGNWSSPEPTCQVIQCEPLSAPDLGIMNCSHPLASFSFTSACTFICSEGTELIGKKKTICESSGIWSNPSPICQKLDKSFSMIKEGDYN
experiment_notes: filter; room temp; 6.8 nM at 37 C
condition_label: tags: human IgG2 Fc fusion (provided by A. Varki); label: 32P; hairpin
result_type: pKd
Give only the number. pKd is defined as minus log10 of concentration in molar units.

Entry 139 (ssDNA) DNA: CTACCTACGATCTGACTAGCGGACAAGGCACTCGACGTAGTTTATAACTCCCTCCGGGCCGCTTACTCTCATGTAGTTCC ; pKd = 9.68
